- Test system: phencyclidine (PCP)-induced abnormal behavior
- TEST: Antagonism against phencyclidine (PCP)-induced abnormal behavior (head weaving)
- REPORTED_CONDITIONS: Rattus norvegicus, read-out: ED50 value (mg/kg)
One threshold, 0.3 mg/kg, splits the recorded ED50 values: lower ones are met, equal or higher ones are not met.

[[record]]
compound = "CCCN(CCC)CCc1ccc(OC)c(OCCc2ccccc2)c1.Cl"
classification = "met"

[[record]]
compound = "CCCN(CCC)CCc1cccc(OC)c1OCCc1ccccc1.Cl"
classification = "met"

[[record]]
compound = "C[C@@H]1CN(CCCn2c3ccccc3c3ccccc32)C[C@H](C)N1 [Rimcazole, reference compound]"
classification = "not met"

[[record]]
compound = "CCCN(CCC)CCCc1ccc(OC)c(OCCc2ccccc2)c1.Cl"
classification = "met"


----------
- TEST: Single-administration toxicity test
- Parameters: species or system Wistar strain rats
- REPORTED_CONDITIONS: Wistar, rat, in vivo, male rats, oral, observation 14 days, read-out: Approximate LD50
PARAMETER_MEASURED: LD50 at 14 days

[[record]]
mol_smiles = "CCCN(CCC)CCc1ccc(OC)c(OCCc2ccccc2)c1.Cl"
parameter_measured = "LD50 at 14 days"
observed_measurement = "685 to 891 mg/kg"


meta.source: patent EP0717990B1
